- experiment summary: Stability constants by potentiometric titration
- Type: binding
- details: Zn^2+ complex; estimated from log KML = 15.4, the ligand pK values and the proton concentration at pH 7.4
property: Kd (nM)

                                   compound  property  value_units  observed_measurement
0  CCOP(=O)(O)CN1CCN(CP(=O)(O)OCC)CCN(CP(=O)(O)OCC)CC1 [NOTPME]        Kd           nM                  0.01

* * *

- experiment summary: Protonation constants by potentiometric titration
- Assay type: physicochemical
- details: 0.1 m tetramethylammonium chloride, 25°C; read-out: pK2 (second protonation constant, log K2)
property: pKa

>>> df
                         structure_notation  property  observed_measurement
0  CCOP(=O)(O)CN1CCN(CP(=O)(O)OCC)CCN(CP(=O)(O)OCC)CC1       pKa                  3.65
